Would you kindly list GI50 for each of these molecules?
Tested on: 786-0
Experiment: NCI tumour cell line growth inhibition, 48 h
Activity calls are given as the source filed them. Cut-off read from the data, not from the text of the source: active = GI50 up to about 1.1 µM and inactive = higher.

Illustrative cases are given below, each with its answer.
[[record]]
molecule = "c1ccc2nn(C3CCCO3)nc2c1 (stereo not given)"
test_readout = "GI50"
value_observed = "> 100 µM (inactive)"

[[record]]
molecule = "CC1=CC(=O)NP(=O)(C23CC4CC(CC(C4)C2)C3)N1 (stereo not given)"
test_readout = "GI50"
value_observed = "> 100 µM (inactive)"

[[record]]
molecule = "Cc1ccc(NC(=O)CC(=O)N2N=C(c3ccccc3)C(/N=N/c3ccc(S(=O)(=O)CCOS(=O)(=O)O)cc3)C2=O)cc1 (stereo not given)"
test_readout = "GI50"
value_observed = "60.5 µM (inactive)"


Would you be so kind as to report GI50 for each listed record?
1. Nc1c(Br)cc(-c2nc3ccccc3s2)cc1Br
2. CCC1c2[nH]c3ccccc3c2C[C@H]2C(=O)NC(CCC(=O)OC(C)(C)C)C(=O)N12 (stereo not given in full)

Output:
> 100 µM (inactive)
56.6 µM (inactive)
